# credit: ChEMBL document CHEMBL4342480

Target: Bifunctional epoxide hydrolase 2 (Homo sapiens)
Sequence (P34913 whole entry, the tested form may be a part): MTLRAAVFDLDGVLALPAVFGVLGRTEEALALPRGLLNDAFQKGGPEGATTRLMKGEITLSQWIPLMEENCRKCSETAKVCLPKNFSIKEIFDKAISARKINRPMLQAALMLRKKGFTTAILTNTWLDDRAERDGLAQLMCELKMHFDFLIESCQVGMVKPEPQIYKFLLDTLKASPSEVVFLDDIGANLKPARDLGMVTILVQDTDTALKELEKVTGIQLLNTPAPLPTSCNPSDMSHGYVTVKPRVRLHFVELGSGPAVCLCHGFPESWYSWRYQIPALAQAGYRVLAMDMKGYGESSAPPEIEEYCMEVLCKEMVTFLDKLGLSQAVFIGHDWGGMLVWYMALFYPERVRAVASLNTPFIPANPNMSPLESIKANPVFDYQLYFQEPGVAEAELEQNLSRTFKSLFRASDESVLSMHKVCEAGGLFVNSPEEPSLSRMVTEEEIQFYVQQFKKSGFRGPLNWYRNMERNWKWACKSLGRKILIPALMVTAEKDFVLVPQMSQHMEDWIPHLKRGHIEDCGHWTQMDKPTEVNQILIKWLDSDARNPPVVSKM
Assay: Inhibition of full length human soluble epoxide hydrolase (1 to 555 residues) expressed in Escherichia coli BL21(DE3) using non-fluorescent PHOME as substrate preincubated for 30 mins followed by substrate addition and measured for 30 mins by fluorescence based assay
Please use yes (1) for IC50 under 600 nM and no (0) for everything else, ties included.

INSERT INTO assay_data (moleculesmiles, class) VALUES
  ('O=C(CCc1ccc(OCc2ccncc2)cc1)NCCc1ccc(F)cc1', 'no (0)'),
  ('O=C(Cc1ccc(Oc2nc3cc(C(F)(F)F)ccc3s2)cc1F)NCCc1ccc(F)cc1', 'no (0)'),
  ('O=C(Cc1ccc(Oc2nc3ccc(C(F)(F)F)cc3s2)cc1F)NCCc1ccc(F)cc1', 'no (0)'),
  ('O=C(Cc1ccc(Oc2ccccc2)cc1)NCCc1ccc(Cl)cc1', 'no (0)'),
  ('O=C(Cc1ccc(Oc2nc3ccccc3s2)cc1F)NCCc1ccc(F)cc1', 'yes (1)'),
  ('O=C(Cc1ccc(Oc2ccccc2)cc1)NCCc1ccc(OC(F)(F)F)cc1', 'yes (1)'),
  ('O=C(Cc1ccc(Oc2nc3ccccc3s2)cc1F)NCCc1cccc(F)c1', 'yes (1)'),
  ('O=C(Cc1ccc(Oc2nc3ccccc3s2)cc1)NCCc1ccc(F)cc1', 'yes (1)'),
  ('COC(=O)c1ccc(CNC(=O)Cc2ccc(Oc3nc4ccccc4s3)cc2F)cc1', 'yes (1)'),
  ('O=C(Cc1ccc(Oc2nc3cc(F)ccc3s2)cc1F)NCCc1ccc(F)cc1', 'no (0)'),
  ('O=C(Cc1ccc(Oc2nc3ccc(F)cc3s2)cc1F)NCCc1ccc(F)cc1', 'no (0)');
